The molecules listed here are annotated with their log10 of EC50.
# Test system: HIV-1 AD8 (CCR5-tropic strain)
# ASSAY METHOD TEXT: Antiviral activity on TZM-bl cells infected with HIV-1 AD8 (CPRG assay)
# Type: cell-based
# EXPERIMENTAL PARAMETERS: Human immunodeficiency virus 1; TZM-bl cells; pre-incubation in complete medium containing fetal bovine serum (FBS); read-out: AD8 EC50 a
Scale: decimal log of EC50, EC50 in nM.

Below, each entry is followed by its recorded log10 of EC50 result.
O=C(O)c1ccc(-c2ccc(/C=C3\SC(=S)N(c4ccc(F)c(Cl)c4)C3=O)o2)cc1O: 2.60
O=C(O)c1ccc(-c2ccc(/C=C3\SC(=S)N(Cc4ccc(Cl)cc4)C3=O)o2)cc1O: 2.81

Query for HIV-1 AD8 (CCR5-tropic strain): what log10 of EC50 does the record show for "O=C(O)c1ccc(-c2ccc(/C=C3\SC(=S)N(Cc4ccc(F)cc4)C3=O)o2)cc1O" ?
3.15

Query for HIV-1 AD8 (CCR5-tropic strain): what log10 of EC50 does the record show for "CCc1ccc(CCN2C(=O)/C(=C/c3ccc(-c4ccc(C(=O)O)c(O)c4)o3)SC2=S)cc1" ?
2.27

Query for HIV-1 AD8 (CCR5-tropic strain): what log10 of EC50 does the record show for "O=C(O)c1ccc(-c2ccc(/C=C3\SC(=S)N(CCCc4ccccc4)C3=O)o2)cc1O" ?
2.58

Query for HIV-1 AD8 (CCR5-tropic strain): what log10 of EC50 does the record show for "O=C(O)c1ccc(-c2ccc(/C=C3\SC(=S)N(Cc4ccc(Cl)c(F)c4)C3=O)o2)cc1O" ?
2.75

Query for HIV-1 AD8 (CCR5-tropic strain): what log10 of EC50 does the record show for "O=C(O)c1ccc(-c2ccc(/C=C3\SC(=S)N(CCc4ccc(F)cc4)C3=O)o2)cc1O" ?
2.06

Query for HIV-1 AD8 (CCR5-tropic strain): what log10 of EC50 does the record show for "Cc1ccc(CCN2C(=O)/C(=C/c3ccc(-c4ccc(C(=O)O)c(O)c4)o3)SC2=S)cc1" ?
2.61
